System name: Tyrosine-protein kinase Fyn (Homo sapiens); note: in the data inactive means no Kd found up to 30 µM
Sequence (P06241 whole entry): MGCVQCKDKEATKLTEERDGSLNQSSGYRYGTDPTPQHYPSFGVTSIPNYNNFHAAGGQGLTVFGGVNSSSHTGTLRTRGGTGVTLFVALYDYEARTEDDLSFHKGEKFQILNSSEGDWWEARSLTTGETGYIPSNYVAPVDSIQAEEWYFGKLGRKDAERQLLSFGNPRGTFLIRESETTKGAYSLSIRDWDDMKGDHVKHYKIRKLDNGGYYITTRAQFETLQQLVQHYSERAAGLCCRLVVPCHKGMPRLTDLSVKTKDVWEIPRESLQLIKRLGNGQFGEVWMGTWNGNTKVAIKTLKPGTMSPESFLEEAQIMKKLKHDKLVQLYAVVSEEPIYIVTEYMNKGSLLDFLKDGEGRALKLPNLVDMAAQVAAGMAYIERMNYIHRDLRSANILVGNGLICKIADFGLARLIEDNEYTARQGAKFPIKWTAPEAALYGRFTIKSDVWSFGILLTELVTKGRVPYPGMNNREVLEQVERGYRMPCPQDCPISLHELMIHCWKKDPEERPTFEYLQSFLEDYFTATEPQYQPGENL
Calls of active or inactive are those of the source.
Give one outcome, nothing more. List: yes (1) = active, no (0) = inactive

Below, 3 compounds whose answers are already recorded.
| Compound | Cat |
| --- | --- |
| O=c1[nH]ccc2cc(OC3CCNCC3)ccc12 [SAR-407899 FREE BASE] | no (0) |
| Cc1cccc(-c2nn3c(c2-c2ccnc4ccc(C(N)=O)cc24)CCC3)n1 [GALUNISERTIB] | no (0) |
| Cc1nc2cc(-c3nn(C(C)C)c4ncnc(N)c34)ccc2o1 | no (0) |

Returns: the outcome recorded for Nc1ncnc2c1c(-c1cccc(OCc3ccccc3)c1)cn2[C@H]1C[C@@H](CN2CCC2)C1 [AEW-541] in this assay. no (0)

Okay, and Cn1cc(-c2cnn3c(N)c(Br)c([C@@H]4CCCNC4)nc23)cn1 [SCH-900776] ? no (0)

====

Listed compounds paired with reported Kd
System name: Casein kinase I isoform gamma-1 (Homo sapiens, UniProt Q9HCP0); note: in the data inactive means no Kd found up to 30 µM
Sequence (Q9HCP0 whole entry, canonical isoform): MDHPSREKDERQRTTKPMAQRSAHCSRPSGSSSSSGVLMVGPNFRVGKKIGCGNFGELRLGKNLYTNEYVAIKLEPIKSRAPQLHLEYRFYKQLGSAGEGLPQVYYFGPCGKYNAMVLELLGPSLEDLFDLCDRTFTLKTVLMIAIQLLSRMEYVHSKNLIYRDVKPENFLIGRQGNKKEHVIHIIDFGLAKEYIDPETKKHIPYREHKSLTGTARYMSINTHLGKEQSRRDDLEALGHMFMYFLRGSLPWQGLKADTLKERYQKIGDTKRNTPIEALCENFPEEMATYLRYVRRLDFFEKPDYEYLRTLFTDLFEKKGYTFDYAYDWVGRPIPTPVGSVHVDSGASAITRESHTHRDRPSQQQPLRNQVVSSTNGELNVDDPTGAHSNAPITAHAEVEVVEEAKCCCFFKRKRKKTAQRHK
Activity calls are given as the source filed them.

# query: Kd of entry CC(C)c1cc(CNc2nc(Nc3cc(C4CC4)[nH]n3)cc(N3CCN(C)CC3)n2)on1 [XL-228] > 30 µM (inactive)

Okay, and Cc1nc(NC(=O)N2CCC[C@H]2C(N)=O)sc1-c1ccnc(C(C)(C)C(F)(F)F)c1 [ALPELISIB] ? > 30 µM (inactive)

Okay, and CO[C@H]1C[C@@H]2CC[C@@H](C)[C@@](O)(O2)C(=O)C(=O)N2CCCC[C@H]2C(=O)O[C@H]([C@H](C)C[C@@H]2CC[C@@H](OP(C)(C)=O)[C@H](OC)C2)CC(=O)[C@H](C)/C=C(\C)[C@@H](O)[C@@H](OC)C(=O)[C@H](C)C[C@H](C)/C=C/C=C/C=C/1C [RIDAFOROLIMUS] ? > 30 µM (inactive)

====

System name: Mitogen-activated protein kinase kinase kinase kinase 5 (Homo sapiens, UniProt Q9Y4K4); note: in the data inactive means no Kd found up to 30 µM
Sequence (Q9Y4K4 whole entry): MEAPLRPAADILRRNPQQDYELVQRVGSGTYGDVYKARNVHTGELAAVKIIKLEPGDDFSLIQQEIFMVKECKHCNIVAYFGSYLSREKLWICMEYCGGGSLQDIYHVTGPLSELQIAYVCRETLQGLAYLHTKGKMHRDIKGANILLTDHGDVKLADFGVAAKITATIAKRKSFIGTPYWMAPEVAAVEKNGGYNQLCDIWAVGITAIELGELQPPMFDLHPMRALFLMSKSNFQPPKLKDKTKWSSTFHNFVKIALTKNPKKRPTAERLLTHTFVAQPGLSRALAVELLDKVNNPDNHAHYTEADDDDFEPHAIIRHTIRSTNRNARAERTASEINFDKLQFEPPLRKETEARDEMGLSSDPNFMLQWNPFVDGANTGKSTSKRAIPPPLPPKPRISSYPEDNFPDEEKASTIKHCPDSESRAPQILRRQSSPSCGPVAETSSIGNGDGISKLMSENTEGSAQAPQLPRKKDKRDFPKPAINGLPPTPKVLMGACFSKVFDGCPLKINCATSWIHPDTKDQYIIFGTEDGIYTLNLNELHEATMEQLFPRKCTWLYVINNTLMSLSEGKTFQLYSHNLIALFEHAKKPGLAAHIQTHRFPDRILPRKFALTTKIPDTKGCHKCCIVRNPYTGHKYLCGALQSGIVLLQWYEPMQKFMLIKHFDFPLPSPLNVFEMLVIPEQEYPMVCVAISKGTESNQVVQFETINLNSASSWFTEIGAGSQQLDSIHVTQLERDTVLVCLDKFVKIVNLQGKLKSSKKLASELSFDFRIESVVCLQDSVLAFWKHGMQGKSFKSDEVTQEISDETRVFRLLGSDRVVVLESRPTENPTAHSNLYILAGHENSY
The source made the active and inactive calls.
Give one outcome, nothing more. List: active, inactive

Below, 4 molecules whose answers are already recorded.
| Input smiles | Cat |
| --- | --- |
| C[C@H]1CNCCCN1S(=O)(=O)c1cccc2cncc(F)c12 | inactive |
| CCn1cc(-c2ccnc3[nH]c(-c4cccc(CN(C)C)c4)cc23)c(-c2ccc(NC(=O)N(C)C)cc2)n1 | inactive |
| Cc1csc(-c2nnc(Nc3ccc(Oc4ncccc4-c4ccnc(N)n4)cc3)c3ccccc23)c1 | active |
| CCS(=O)(=O)c1cccc(-c2cc(C(=O)NC3CCN(C)CC3)c(C)c3[nH]c4ncc(C)cc4c23)c1 | active |

Returns: the outcome recorded for Cc1nc2cc(-c3nn(C(C)C)c4ncnc(N)c34)ccc2o1 in this assay. inactive

Okay, and CNC(=O)c1cccc2cc(Oc3ccnc4cc(OCC5(N)CC5)c(OC)cc34)ccc12 ? inactive

Okay, and C#Cc1cccc(Nc2ncnc3cc(OC)c(OCCCCCCC(=O)NO)cc23)c1 ? inactive

Okay, and CCOc1cc2ncc(C#N)c(Nc3ccc(F)c(Cl)c3)c2cc1NC(=O)/C=C/CN(C)C ? active

====

System name: Mitogen-activated protein kinase 14 (Homo sapiens); note: in the data inactive means no Kd found up to 30 µM
Sequence (Q16539 whole entry): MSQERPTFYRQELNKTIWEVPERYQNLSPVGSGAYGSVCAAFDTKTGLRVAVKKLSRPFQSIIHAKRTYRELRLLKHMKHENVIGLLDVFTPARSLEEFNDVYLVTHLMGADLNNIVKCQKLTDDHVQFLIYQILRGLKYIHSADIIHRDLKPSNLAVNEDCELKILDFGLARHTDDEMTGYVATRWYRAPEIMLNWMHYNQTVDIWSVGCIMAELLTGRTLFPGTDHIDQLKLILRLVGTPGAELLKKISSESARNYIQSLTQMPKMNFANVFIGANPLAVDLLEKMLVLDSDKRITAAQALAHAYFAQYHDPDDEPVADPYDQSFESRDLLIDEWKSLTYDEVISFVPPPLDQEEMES
The source made the active and inactive calls.
Give one outcome, nothing more. List: 1 (yes) (active), 0 (no) (inactive)

Below, 3 compounds whose answers are already recorded.
| Input smiles | Cat |
| --- | --- |
| Cn1cnc2c(F)c(Nc3ccc(Br)cc3F)c(C(=O)NOCCO)cc21 | 0 (no) |
| Cc1csc(-c2nnc(Nc3ccc(Oc4ncccc4-c4ccnc(N)n4)cc3)c3ccccc23)c1 | 1 (yes) |
| Cn1cc(-c2cnn3c(N)c(Br)c([C@@H]4CCCNC4)nc23)cn1 | 0 (no) |

We next turn to a different compound, shown below.
Returns: the outcome recorded for Cc1nc(Nc2n[nH]c3c2CN(C(=O)N[C@H](CN(C)C)c2ccccc2)C3(C)C)c2sccc2n1 in this assay. 0 (no)
